Sourced from patent US6632932B1

- experiment: Evaluation of light resistance of ink jet print (xenon fade meter)
- Assay type: physicochemical
- setupConditions: amount of energy required for OD value (about 1.0) to decrease to 70%; ink with 6.0% by weight dye, pH 9.0-9.5 (ammonia), printed on PM Photo Paper; xenon 36 W/m^2 (300 to 400 nm), 24° C., 55% humidity
recordedMetric: Evaluation of light resistance

querySmiles: COc1ccc(N=Nc2c(S(=O)(=O)O)cc3c(S(=O)(=O)O)cc(N=Nc4ccc5cc(S(=O)(=O)O)c(N=Nc6cc(Cl)ccc6C(=O)O)c(O)c5c4)c(N)c3c2O)c(S(=O)(=O)O)c1
measValue: ◯

* * *

- experiment: Evaluation of light resistance of ink jet print (xenon fade meter)
- Format: physicochemical
- setupConditions: amount of energy required for OD value (about 1.0) to decrease to 70%; ink with 6.0% by weight dye, pH 9.0-9.5 (ammonia), printed on PM Photo Paper; xenon 36 W/m^2 (300 to 400 nm), 24° C., 55% humidity

compound: Cc1cc(-c2ccc(N=Nc3c(S(=O)(=O)O)cc4cc(S(=O)(=O)O)c(N=Nc5ccccc5)c(O)c4c3N)c(C)c2)ccc1N=Nc1ccc(N)cc1N [C. I. Direct Black 154, reference compound]
Evaluation of light resistance: ×

* * *

- experiment: Evaluation of light resistance of ink jet print (xenon fade meter)
- Assay type: physicochemical
- setupConditions: amount of energy required for OD value (about 1.0) to decrease to 70%; ink with 6.0% by weight dye, pH 9.0-9.5 (ammonia), printed on PM Photo Paper; xenon 36 W/m^2 (300 to 400 nm), 24° C., 55% humidity

querySmiles: Nc1c(N=Nc2ccc3cc(S(=O)(=O)O)c(N=Nc4cccc(C(=O)O)c4)c(O)c3c2)cc(S(=O)(=O)O)c2cc(S(=O)(=O)O)c(N=Nc3ccccc3C(=O)O)c(O)c12
Evaluation of light resistance: ◯
